src = PubChem BioAssay

target under test: Voltage-gated potassium channel subunit beta-2 (Rattus norvegicus) (UniProt P62483)
Sequence (P62483 whole entry, looked up): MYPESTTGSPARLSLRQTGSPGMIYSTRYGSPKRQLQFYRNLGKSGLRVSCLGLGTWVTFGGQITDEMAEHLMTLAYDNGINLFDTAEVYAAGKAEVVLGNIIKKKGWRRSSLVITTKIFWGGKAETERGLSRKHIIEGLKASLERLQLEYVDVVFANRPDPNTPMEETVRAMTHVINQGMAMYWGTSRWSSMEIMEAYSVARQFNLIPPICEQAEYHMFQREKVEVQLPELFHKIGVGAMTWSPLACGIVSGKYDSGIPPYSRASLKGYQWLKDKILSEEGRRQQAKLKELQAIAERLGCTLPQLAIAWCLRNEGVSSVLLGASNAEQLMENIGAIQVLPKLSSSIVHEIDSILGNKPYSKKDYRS
method notes: enhancers of rat Kvbeta2 NADPH turnover – biochemical, NADPH fluorescence, primary screen (AID 623);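 further: fluorescence intensity change per second fitted from 20 to 320 s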
stated conditions: Recombinant KvBeta, NADPH fluorescence decrease slope, 10 min; at 10 µM; hits give low values
The source made the active and inactive calls.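 How the source made its calls: active means NADPH fluorescence slope more negative than the mean of all samples by about 3 SD, 99.7% confidence; inactive means the rest.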
readout label: NADPH fluorescence slope

Past entries and their recorded results:
> print(dat)
                                   molecule                         target.under.test             readout.label               result
1  O=C(NCc1ccc2c(c1)OCO2)C1CCC(CNc2c(N3CCCCC3)c(=O)c2=O)CC1 (stereo not given)  Voltage-gated potassium channel subunit beta-2 (Rattus norvegicus) (UniProt P62483)  NADPH fluorescence slope  -4.4e-05 (inactive)
2  CCOC(=O)CSc1nnc(CNC(=O)c2ccc(S(=O)(=O)N3CCCC3)cc2)n1C  Voltage-gated potassium channel subunit beta-2 (Rattus norvegicus) (UniProt P62483)  NADPH fluorescence slope  -8.2e-06 (inactive)

Required: NADPH fluorescence slope, one value per molecule below.
1. O=C(NCc1ccco1)c1c2c(nc3ccccc13)CCC2
2. Nc1nc(Nc2ccc(Cl)cc2Cl)nc(C(F)(F)F)n1
3. Cc1onc(-c2ccccc2)c1C(=O)N1CCCSC1=Nc1ccccc1
4. COc1ccc(S(=O)(=O)NCC(c2cccnc2)N2CCN(C)CC2)cc1C (stereo not given)

Reply:
1. -5.2e-05 (inactive)
2. -1.8e-06 (inactive)
3. -5.7e-05 (inactive)
4. -1.6e-05 (inactive)

Required: NADPH fluorescence slope, one value per molecule below.
1. COc1ccc(Cc2nc(-c3ccc(Br)cc3)no2)cc1
2. O=C(Cn1ccc2ccccc2c1=O)NCCC(=O)N1CCN(C(=O)c2ccco2)CC1
3. C=CCn1c(SCC(=O)NCC2CCCO2)nnc1C1CCCCC1 (stereo not given)
4. Cc1cc2ncn(C(=O)N3CCOCC3)c2cc1C
5. COc1ccc(OC)c(NS(=O)(=O)Cc2ccccc2)c1

Reply:
["2e-05 (inactive)", "0.000132 (inactive)", "-2.9e-05 (inactive)", "-3.6e-05 (inactive)", "-1.8e-05 (inactive)"]

Required: NADPH fluorescence slope, one value per molecule below.
1. c1nc(NCC2(N3CCOCC3)CCCCC2)c2ccsc2n1
2. Cc1ccc(OC(=O)CCC(=O)OCCCC(F)(F)C(F)(F)F)cc1
3. COc1ccc(C2CC(c3ccc(C)cc3)Nc3ncnn32)cc1 (stereo not given)
4. NS(=O)(=O)c1ccc(CCNC(=O)CCC2COc3ccccc3O2)cc1 (stereo not given)

Reply:
["-1e-05 (inactive)", "-5.9e-05 (inactive)", "-2.3e-05 (inactive)", "3.4e-06 (inactive)"]

* * *

method notes: reduction of polyQ htt aggregates in cells – imaging, exon1htt(103Q)mCFP cells, high-content imaging, primary screen (AID 483);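 further: compound exposure lasted 3 days before fixation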
stated conditions: exon1htt(103Q)mCFP cell line, aggregate imaging, at 2 µM; hits give high values
Please respond with reported inhibition of aggregation for every item in the list.
Numbers only, in %.

Past entries and their recorded results:
> print(dat)
                                   molecule  recorded.number
1                  CN(C)CCCNC(=O)CCC1CCCCC1               -4
2  CCOc1ccc(C2CC(c3ccccc3C)n3nc(N)nc3N2)cc1 (stereo not given)             30.8

Required: inhibition of aggregation, one value per molecule below.
1. COc1ccc(N2CCC(CNS(=O)(=O)c3cccc(C(F)(F)F)c3)C2)cc1 (stereo not given)
2. CCOC(=O)c1cc2sccc2n1CC(=O)Nc1ccc2c(c1)OCCO2
3. COc1ccc(C2(C(=O)Nc3cc(C)on3)CCOCC2)cc1
4. CCc1cc2ccc(C)cc2nc1SCC(=O)N1CCN(C(=O)c2ccco2)CC1
5. CC1(C)OC(=O)C(=CNc2ccccc2)C(=O)O1
6. COc1nc(-c2ccc(Cl)cc2)ccc1-c1noc(-c2ccncc2)n1
7. COC(=O)c1ccc(CSc2nc(-c3ccc(OC)cc3)nc3c2c(=O)n(C)c(=O)n3C)o1
8. O=C(NC1CCCCCCC1)C1CCN(c2nc3ccccc3o2)CC1

Reply:
1: 30.1; 2: -25.9; 3: 10.1; 4: 15.4; 5: -4.1; 6: -4.2; 7: -0.5; 8: 9.4
